All figures here come from ChEMBL document CHEMBL1133121.

Assay: Tmax(h)value was determined in dogs after po dose of 1 mg/kg
Format: ADME, organism-based, Canis lupus familiaris
Design: dose 1 mg/kg, route oral
Details: dog, in vivo
REPORTED_METRIC: Tmax (min)
Give the number; min is assumed, so skip it.

Input `COCC(COC)Nc1nc(C)nc2c(-c3ccc(Cl)cc3Cl)c(C)nn12` . Output Tmax: 52.8

###

Assay: t1/2 (h) value was determined in dogs after intravenous dose of 1 mg/kg
Type: ADME, organism-based, Canis lupus familiaris
Set-up: dose 1 mg/kg, route intravenous
Conditions: dog, in vivo
REPORTED_METRIC: half-life (h)
Provide only the numeric value, understood in h.

Lab book: half-life of `COCC(COC)Nc1nc(C)nc2c(-c3ccc(Cl)cc3Cl)c(C)nn12` noted as 34.5

###

Test: t1/2 (h) value of was determined in rats after intravenous dose of 5 mg/kg
Type: ADME, organism-based
Design: dose 5 mg/kg, route intravenous
Conditions: rat, in vivo
REPORTED_METRIC: half-life (h)
// return numeric value only (unit: h, not printed)

The compound `COCC(COC)Nc1nc(C)nc2c(-c3ccc(Cl)cc3Cl)c(C)nn12` showed half-life equal to 12.3

###

Experiment: Cmax(nM)value was determined in rats after po dose of 5 mg/kg
Assay type: ADME, organism-based
Set-up: dose 5 mg/kg, route oral
Conditions: rat, in vivo
REPORTED_METRIC: Cmax (nM)
Write the answer as a number in nM, unit excluded.

Sample `COCC(COC)Nc1nc(C)nc2c(-c3ccc(Cl)cc3Cl)c(C)nn12` ; Cmax observed: 317

###

Experiment: Tmax(h)value was determined in rats after po dose of 5 mg/kg
Format: ADME, organism-based
Design: dose 5 mg/kg, route oral
Conditions: rat, in vivo
REPORTED_METRIC: Tmax (min)
Numbers only; they are read as min.

The measured Tmax associated with `COCC(COC)Nc1nc(C)nc2c(-c3ccc(Cl)cc3Cl)c(C)nn12` reads 26.4

###

Test system: Canis familiaris
Assay: AUCT(nM.h) value was determined in dogs after intravenous dose of 1 mg/kg
Type: ADME, organism-based, Canis lupus familiaris, Plasma
Parameters: dose 1 mg/kg, route intravenous
Conditions: dog, in vivo
REPORTED_METRIC: AUC T (nM·h)
Provide the reading as a plain figure in nM·h.

Summary: `COCC(COC)Nc1nc(C)nc2c(-c3ccc(Cl)cc3Cl)c(C)nn12` , Canis familiaris, AUC T = 2280

###

System: Canis familiaris
Assay: AUC(nM.h) value was determined in dogs after intravenous dose of 1 mg/kg
Type: ADME, organism-based, Canis lupus familiaris, Plasma
Parameters: dose 1 mg/kg, route intravenous
Settings: dog, in vivo
REPORTED_METRIC: AUC (µM·h)
Record the value in µM·h, omitting the unit from your answer.

The recorded AUC for `COCC(COC)Nc1nc(C)nc2c(-c3ccc(Cl)cc3Cl)c(C)nn12` is 2.69
